System: HCT-15 colon
protocolNotes: NCI tumour cell line growth inhibition, 48 h
Record Yes whenever TGI is at 40 µM or higher; record No when lower.

Given the entry `CN(C)CCCNC1=C(Cl)C(=O)c2ccccc2C1=O` , answer whether its TGI meets or surpasses 40 µM.
No

Given the entry NS(=O)(=O)c1ccccc1C(=O)N/N=C(\c1nc2ccc([N+](=O)[O-])cc2[nH]c1=O)C(O)c1ccc([N+](=O)[O-])cc1 (configuration not stated) , answer whether its TGI meets or surpasses 40 µM.
Yes

Given the entry `O=c1cc(-c2cccc(O)c2)[nH]c2cc3c(cc12)OCO3` , answer whether its TGI meets or surpasses 40 µM.
Yes

Given the entry CC(=O)OC1COC(n2c(=S)n(-c3ccc(C)cc3)c(=O)c3ccccc32)C(OC(C)=O)C1OC(C)=O (configuration not stated) , answer whether its TGI meets or surpasses 40 µM.
Yes

Given the entry N#CC(C#N)=c1ccc(=C2NCC3CCCN23)cc1 (configuration not stated) , answer whether its TGI meets or surpasses 40 µM.
Yes

Given the entry CCNC1C2(CCCCC2)NC(=O)C12CCCCC2 (configuration not stated) , answer whether its TGI meets or surpasses 40 µM.
Yes

Given the entry `COc1ccc(-c2cc(-c3ccc(Nc4nc(Nc5ccccc5)nc(Nc5ccc(Cl)cc5)n4)cc3)nc(N)c2C#N)cc1` , answer whether its TGI meets or surpasses 40 µM.
No

Given the entry CN1CCc2cc3c(c4c2C1C(O)c1ccccc1-4)OCO3 (configuration not stated) , answer whether its TGI meets or surpasses 40 µM.
No

Given the entry `O=C1c2ccccc2C(=O)c2sc(Nc3cccc(Cl)c3)nc21` , answer whether its TGI meets or surpasses 40 µM.
No

Given the entry `C/C(=C\CO)CC/C=C(\C)CNc1c(F)c(F)c(F)c(F)c1F` , answer whether its TGI meets or surpasses 40 µM.
Yes

Given the entry `Fc1ccc(Nc2ncnc3ccc(-c4cnc5[nH]ccc5c4)cc23)cc1Cl` , answer whether its TGI meets or surpasses 40 µM.
Yes

Given the entry NC(CSC(c1ccccc1)(c1ccccc1)c1ccc2c(c1)OCO2)C(=O)O (configuration not stated) , answer whether its TGI meets or surpasses 40 µM.
Yes

Given the entry CC1=C(C#N)C23C(=O)c4ccccc4C(O)=C2C(=O)C=CC3(O)N1Cc1ccccc1 (configuration not stated) , answer whether its TGI meets or surpasses 40 µM.
Yes

Given the entry `O=C(Nc1ccc(F)cc1F)c1cc(I)ccc1O` , answer whether its TGI meets or surpasses 40 µM.
Yes

Given the entry `O=C1OCN(c2ccccc2)C12CCN(Cc1ccccc1)CC2` , answer whether its TGI meets or surpasses 40 µM.
Yes

Given the entry `CN(C)CCNc1ccc([N+](=O)[O-])c2sc3ccccc3c(=O)c12` , answer whether its TGI meets or surpasses 40 µM.
No

Given the entry `Nc1ncc(Br)c(NCC2(CO)CCC2)n1` , answer whether its TGI meets or surpasses 40 µM.
Yes

Given the entry `O=C(OCc1ccccc1)N(CCCCN(CCCNC(=O)C(F)(F)F)C(=O)OCc1ccccc1)CCCNC(=O)C(F)(F)F` , answer whether its TGI meets or surpasses 40 µM.
Yes

Given the entry NC1CC(=O)c2cscc21 (configuration not stated) , answer whether its TGI meets or surpasses 40 µM.
Yes

Given the entry O=C(O)C(Cc1ccccc1)N1C(=O)N/C(=C\c2ccc(F)cc2)C1=O (configuration not stated) , answer whether its TGI meets or surpasses 40 µM.
Yes

Given the entry `CSc1ccccc1C#C/C=C\C#Cc1ccccc1N1CCCC1=O` , answer whether its TGI meets or surpasses 40 µM.
Yes

* * *

Test system: BT-549 breast
protocolNotes: NCI tumour cell line growth inhibition, 48 h
measuredAttribute: TGI

I am curious: what TGI value has been reported for `O=c1ccn([C@@H]2C[C@H]2CO)c(=O)[nH]1` ?
> 100 µM

I am curious: what TGI value has been reported for `CC(=O)c1cccc(Nc2nc3ccccc3c3occc23)c1` ?
39.6 µM

I am curious: what TGI value has been reported for `NC(N)=Nc1ccc(-c2ccc(N=C(N)N)cc2)cc1` ?
> 100 µM

I am curious: what TGI value has been reported for `O=C1C=Cc2c(Br)sc(Br)c21` ?
> 100 µM

I am curious: what TGI value has been reported for `COc1ccc(-c2cc(-c3ccc(Nc4nc(Nc5ccccc5)nc(Nc5ccc(Cl)cc5)n4)cc3)nc(N)c2C#N)cc1` ?
2.49 µM

I am curious: what TGI value has been reported for `Cc1ccc(-c2nnc(-c3ccc4ccccc4c3)o2)cc1` ?
> 93.5 µM

I am curious: what TGI value has been reported for `O[C@H]1[C@H]2c3cc4c(cc3CN3CCC(=C[C@@H]1O)[C@H]23)OCO4` ?
5.43 µM

I am curious: what TGI value has been reported for `Cn1c(=O)c2c3ccccc3n(C)c2n(C)c1=O` ?
> 100 µM

I am curious: what TGI value has been reported for `O=C1c2cccnc2-c2nc(-c3ccccc3[N+](=O)[O-])cc3c2c1nc1ccccc13` ?
73.2 µM

I am curious: what TGI value has been reported for CSC1=C(C#N)C(=S)N=C(N)C1C(=O)Nc1ccc(C)cc1 (configuration not stated) ?
> 100 µM

I am curious: what TGI value has been reported for `CC(C)(C)c1cc(C(=O)/C=C/c2c(Cl)cccc2Cl)cc(C(C)(C)C)c1O` ?
61.7 µM

I am curious: what TGI value has been reported for NC1CC(=O)c2cscc21 (configuration not stated) ?
> 100 µM

I am curious: what TGI value has been reported for O=C1NC(N/N=C/C(O)C(O)C(O)C(O)CO)=N/C1=C\c1ccco1 (configuration not stated) ?
> 100 µM

I am curious: what TGI value has been reported for `C=CC[C@H]1O[Si](C(C)(C)C)(C(C)(C)C)[C@H](C)[C@H]1C` ?
> 100 µM

I am curious: what TGI value has been reported for `CCOC(=O)Nc1nc2ccc(OCC)cc2s1` ?
> 100 µM

I am curious: what TGI value has been reported for `Cc1sc(Nc2ccc(Nc3nc(-c4ccccc4)c(C)s3)cc2)nc1-c1ccccc1` ?
> 100 µM

I am curious: what TGI value has been reported for C1=CC2C=CC(C=C1)P2c1ccccc1 (configuration not stated) ?
> 100 µM

I am curious: what TGI value has been reported for `O=C(CN1CCN(c2cc3c(cc2F)c(=O)c(C(=O)N/N=C/c2ccccc2O)cn3C2CC2)CC1)N/N=C\c1ccccc1O` ?
> 100 µM

I am curious: what TGI value has been reported for `COc1cc2nc(C)nc(N[C@H](C)c3cc(N)cc(C(F)(F)F)c3)c2cc1O[C@H]1CCOC1` ?
24.2 µM

I am curious: what TGI value has been reported for `Cc1ccc(Nc2nc(=O)c3c4ccccc4n(C(=O)OC(C)(C)C)c3s2)cc1` ?
56.5 µM

I am curious: what TGI value has been reported for `Nc1cc2nc3ccccc3sc-2cc1=O` ?
3.32 µM

I am curious: what TGI value has been reported for `C[N+](C)(CCCn1ccnc1[N+](=O)[O-])CCCn1ccnc1[N+](=O)[O-]` ?
> 100 µM

* * *

Test system: LOX IMVI melanoma
protocolNotes: NCI tumour cell line growth inhibition, 48 h; in the data active = GI50 below about 0.43 µM; inactive = the rest
Could you please pick one outcome from this set? T (active), F (inactive)

So what was the verdict on O=c1n(CC2CO2)c(=O)n(CC2CO2)n1CC1CO1 (stereo unspecified) in this test?
F

So what was the verdict on `O=C1c2cccnc2-c2nc(-c3ccccc3[N+](=O)[O-])cc3c2c1nc1ccccc13` in this test?
F

So what was the verdict on `COc1ccc(C2=CSc3cc(Cl)c(C)cc3S(=O)(=O)N2C(C)=O)cc1` in this test?
F

So what was the verdict on `O=C1/C(=C/c2ccc([N+](=O)[O-])cc2)COc2ccc(O)c(O)c21` in this test?
F

So what was the verdict on CCOc1ccccc1-n1c(CN2CCN(C(=O)COc3ccc(CNCCCCCCN4C5CCCC4CC(OC(=O)Nc4cc(C)ccc4OC)C5)cc3)CC2)nc2ccccc2c1=O (stereo unspecified) in this test?
F

So what was the verdict on CC(C)c1ccc(C(C)C(=O)N(CC2=C(C(C)c3ccccn3)c3ccccc3C2)C(C)C)cc1 (stereo unspecified) in this test?
F

So what was the verdict on `CCCCCCCC(=O)SCC/C=C/[C@@H]1CC(=O)NCc2cccc(n2)C2=N[C@@](C)(CS2)C(=O)N[C@@H](C(C)C)C(=O)N1` in this test?
F

So what was the verdict on `Nc1cc2nc3ccccc3sc-2cc1=O` in this test?
F

So what was the verdict on `O=C(Nc1ccc(F)cc1F)c1cc(I)ccc1O` in this test?
F

So what was the verdict on `O=C(Nc1ccc(I)cc1)c1cc([N+](=O)[O-])ccc1O` in this test?
F

So what was the verdict on C=C(CNCCO)[C@@H]1CC[C@]2(CO)CC[C@]3(C)[C@H](CC[C@@H]4[C@@]5(C)CCC(N)C(C)(C)[C@@H]5CC[C@]43C)[C@@H]12 (stereo partly specified) in this test?
F

So what was the verdict on `C[C@@H](CS(C)(=O)=O)Nc1ncc2cc(Oc3ccc(F)cc3F)c(=O)n(C)c2n1` in this test?
F

So what was the verdict on `COc1cc(C(=O)/C=C/c2sc(Cl)nc2Cl)cc(OC)c1OC` in this test?
F

So what was the verdict on COc1cc2c(c(OC)c1O)C(=O)C(OC)C(c1ccc(O)c(O)c1)O2 (stereo unspecified) in this test?
T

So what was the verdict on `CNC(=O)c1cc(Oc2ccc3nc(NC(=O)Nc4ccc(Cl)c(C(F)(F)F)c4)sc3c2)ccn1` in this test?
F

So what was the verdict on `COc1cc2nc(C)nc(N[C@H](C)c3cc(N)cc(C(F)(F)F)c3)c2cc1O[C@H]1CCOC1` in this test?
F
